Target: TcCK2α (Trypanosoma cruzi, UniProt Q4E340)
Construct: gene Tc00.1047053508741.320; recombinant TcCK2α in hybrid CK2 holoenzyme; with S. pombe CK2β (pCK2β)
Sequence (P40232 whole entry): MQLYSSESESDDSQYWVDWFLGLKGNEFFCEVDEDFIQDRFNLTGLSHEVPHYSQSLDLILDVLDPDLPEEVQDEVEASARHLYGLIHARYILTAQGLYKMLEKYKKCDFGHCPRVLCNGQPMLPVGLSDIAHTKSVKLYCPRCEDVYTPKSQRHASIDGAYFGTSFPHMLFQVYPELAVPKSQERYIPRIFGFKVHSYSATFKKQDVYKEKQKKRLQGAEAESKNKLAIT
Sequence (Q4E340 entry or part of it): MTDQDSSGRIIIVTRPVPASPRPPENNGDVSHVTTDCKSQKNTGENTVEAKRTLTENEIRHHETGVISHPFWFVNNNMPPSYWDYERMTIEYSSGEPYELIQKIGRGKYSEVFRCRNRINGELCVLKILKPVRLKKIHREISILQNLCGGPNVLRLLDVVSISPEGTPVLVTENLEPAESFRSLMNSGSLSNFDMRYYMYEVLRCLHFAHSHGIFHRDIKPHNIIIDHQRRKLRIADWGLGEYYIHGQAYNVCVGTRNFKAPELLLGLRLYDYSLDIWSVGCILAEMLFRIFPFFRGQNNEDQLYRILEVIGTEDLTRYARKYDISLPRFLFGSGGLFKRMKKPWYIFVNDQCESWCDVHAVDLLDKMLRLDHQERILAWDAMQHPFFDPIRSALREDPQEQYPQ
Test: […]-ATP phosphorylation of pCK2β, SDS-PAGE autoradiography
Type: biochemical
PROPERTY_MEASURED: IC50

Reported IC50 for `Brc1c(Br)c(Br)c2[nH]nnc2c1Br` was 500 to 1000 nM
